Listed binders paired with reported OD450 nm
TARGET_OR_TEST_SYSTEM: T1, cynomolgus monkey C-KIT-Fc protein (cynomolgus monkey)
T1 construct: also called cyno C-KIT-Fc; cyno C-KIT
METHOD_SUMMARY: direct ELISA, IgG at 1 µg/ml

BINDER	OD450 nm
MH5.22 (antibody, human IgG1, V domains shown, graft frameworks; substitutions derived; human IgG1; also called C-KIT-MH5.22) VH: QVQLVQSGAEVKKPGASVKVSCKASGYTFTDFYMNWVRQAPGQGLEWMGRIYPASGNTYYAQKFQGRVTMTRDTSTSTVYMELSSLRSEDTAVYYCARGVWYYDYWGQGTLVTVSS VL: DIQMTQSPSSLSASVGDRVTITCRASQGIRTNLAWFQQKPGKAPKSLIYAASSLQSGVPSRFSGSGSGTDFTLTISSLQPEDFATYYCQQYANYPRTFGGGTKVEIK	> 2 OD450 nm
MH5 IgG1 (antibody, V domains shown, human IgG1; also called C-KIT-MH5) VH: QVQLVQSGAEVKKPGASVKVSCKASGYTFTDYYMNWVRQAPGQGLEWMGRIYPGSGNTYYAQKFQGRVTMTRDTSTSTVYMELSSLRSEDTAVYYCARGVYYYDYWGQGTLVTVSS VL: DIQMTQSPSSLSASVGDRVTITCRASQGIRTNLAWFQQKPGKAPKSLIYSASSLQSGVPSRFSGSGSGTDFTLTISSLQPEDFATYYCQQYANYPRTFGGGTKVEIK	> 2 OD450 nm
E-C7 (antibody, human IgG1, V domains shown, human IgG1; also called C-KIT-E-C7) VH: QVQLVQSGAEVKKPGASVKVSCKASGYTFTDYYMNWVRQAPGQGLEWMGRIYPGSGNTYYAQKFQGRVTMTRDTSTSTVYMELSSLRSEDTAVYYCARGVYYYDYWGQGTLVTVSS VL: DIQMTQSPSSLSASVGDRVTITCRASQGIRTNLAWFQQKPGKAPKSLIYSASSLQSGVPSRFSGSGSGTDFTLTISSLQPEDFATYYCQQYNSYPRTFGGGTKVEIK	> 2 OD450 nm

Taken from patent US20230212285A1.
